study.system: 5-hydroxytryptamine receptor 2C (Homo sapiens, UniProt P28335)
Sequence (P28335 whole entry): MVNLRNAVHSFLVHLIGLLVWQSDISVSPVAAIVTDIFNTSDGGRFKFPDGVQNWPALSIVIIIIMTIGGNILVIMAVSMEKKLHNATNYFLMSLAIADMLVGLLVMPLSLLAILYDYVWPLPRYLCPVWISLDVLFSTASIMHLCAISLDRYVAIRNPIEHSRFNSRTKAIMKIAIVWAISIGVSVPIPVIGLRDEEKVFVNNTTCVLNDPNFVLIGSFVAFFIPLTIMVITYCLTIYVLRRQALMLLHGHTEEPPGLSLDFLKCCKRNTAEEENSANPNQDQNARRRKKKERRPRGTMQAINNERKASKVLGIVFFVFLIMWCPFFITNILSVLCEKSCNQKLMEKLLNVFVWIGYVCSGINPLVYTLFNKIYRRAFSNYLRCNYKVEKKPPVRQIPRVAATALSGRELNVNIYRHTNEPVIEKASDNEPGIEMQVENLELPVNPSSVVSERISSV
assay.summary: Displacement of [125I]-DOI from recombinant human 5HT2CR transfected in human HEK293 cells incubated for 45 mins by radioligand binding assay
Format: cell-based
This section presents compounds with their documented pKi values.
Hey, just a heads up that pKi is the negative log base 10 of the concentration in molar.

>  <structure.notation>
CC(C)Cc1ccnc2c1CC[C@@H]1CNCCN21

>  <pKi>
9.20

$$$$

5-hydroxytryptamine receptor 2C (Homo sapiens, UniProt P28335) data for c1ccc(Cc2ccnc3c2CC[C@@H]2CNCCN32)cc1 ; its pKi: 9.60

5-hydroxytryptamine receptor 2C (Homo sapiens, UniProt P28335) data for CCCc1ccnc2c1CC[C@@H]1CNCCN21 ; its pKi: 9.80

5-hydroxytryptamine receptor 2C (Homo sapiens, UniProt P28335) data for FC(F)(F)CCc1cccc2c1CC[C@@H]1CNCCN21 ; its pKi: 8.70

5-hydroxytryptamine receptor 2C (Homo sapiens, UniProt P28335) data for c1ccc(Cc2cncc3c2CC[C@@H]2CNCCN32)cc1 ; its pKi: 9.30

5-hydroxytryptamine receptor 2C (Homo sapiens, UniProt P28335) data for CCCc1cccc2c1CC[C@@H]1CNCCN21 ; its pKi: 9.50

Source listed as ChEMBL document CHEMBL4706699.
